assay procedure: NCI Yeast Anticancer Drug Screen. Data for the mlh1 strain (AID 171);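 note: 0% = growth of vehicle-treated control cultures of the same strain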
particulars: S. cerevisiae mlh1 strain growth inhibition; at 33.0 µM
This is part of a sample that, as a whole, favours compounds with a hit. Of some 79,000 tested, about 15% had one in any assay. Activity calls are given as the source filed them. Cut-off read from the data, not from the text of the source: active = growth inhibition above about 70%; inactive = the rest.
// allowed return values: 1 = active, -1 = inactive

O=c1[nH]cc(F)c(=O)[nH]1 ... 1
CCN(CC)c1cccc(Nc2nc3ccccc3s2)c1 ... -1
Cc1nc2ccc(Br)cc2c(=O)n1-c1ccc(NC2OCC(O)C(O)C2O)cc1 (stereo not given) ... -1
CCc1nc2ccc(N=Nc3c(O)ccc4ccccc34)cc2[nH]1 ... -1

Now let's try a different one.
// param item: CC1=Cc2ccc(C)cc2C(=O)C1=O ; yields the recorded call 1

====

assay procedure: NCI Yeast Anticancer Drug Screen. Data for the wt2 strain (AID 169);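 note: 0% = growth of vehicle-treated yeast cultures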
particulars: S. cerevisiae wt2 strain growth inhibition; at 100.0 µM; active compounds read high
The panel holds about 79,000 compounds, 15% with a hit somewhere; the sample as a whole holds those more often.
property label: growth inhibition (%)
Number only, in %; omit the unit.

Cc1ccc(N(C=O)c2c([N+](=O)[O-])cc([N+](=O)[O-])c3c2=[N+]([O-])CN=3)cc1 ... 98
COc1ccc2nc3cccc([N+](=O)[O-])c3c(NCCCO)c2c1 ... 98
O=[N+]([O-])c1cccc2nc3ccccc3c(NCCC[N+]3([O-])CCOCC3)c12 ... 93

Could you now consider this next compound?
Identify measured growth inhibition corresponding to CN(C)CCn1c2ccccc2c2nc3cc4ccccc4cc3nc21 98

====

assay procedure: NCI Yeast Anticancer Drug Screen. Data for the bub3 strain (AID 167)
particulars: S. cerevisiae bub3 mutant strain, at 50.0 µM
This is part of a sample that, as a whole, favours compounds with a hit. Of some 79,000 tested, about 15% had one in any assay. Active and inactive are the calls of the source. Cut-off read from the data, not from the text of the source: active = growth inhibition above about 70%; inactive = the rest.
// allowed return values: 1 (yes) = active, 0 (no) = inactive

// below: answered compounds
Nc1nc(Nc2ccccc2)nc(Nc2ccccc2)n1 ... 1 (yes)
CCOc1ccc2ccc3cccnc3c2n1 ... 0 (no)
c1ccc2cc(OCC3CO3)c(OCC3CO3)cc2c1 (stereo unspecified) ... 0 (no)
NCC(O)CSCc1ccc(Cl)cc1 (stereo unspecified) ... 1 (yes)
CCC1SC(=S)N(c2ccc(Cl)cc2)C1=O (stereo unspecified) ... 0 (no)

Now let's try a different one.
// param item: COc1ccc(/C=C2\S/C(=N/Nc3nc(-c4ccccc4)cs3)NC2=O)cc1OC ; yields the recorded call 1 (yes)

====

assay procedure: NCI Yeast Anticancer Drug Screen. Data for the mgt1 strain (AID 153)
particulars: S. cerevisiae mgt1 mutant growth inhibition; at 1.2 µM; active compounds read high
Description: Growth inhibition of yeast strains with defined genetic alterations is measured as a screen for potential anti-cancer activity. Selected strains with alterations in DNA damage repair or cell cycle control were exposed to compounds and growth inhibition was measured relative to vehicle treated controls. The strain used in this assay is mgt1
Compounds without any hit were thinned out: in the full panel of roughly 79,000, 15% have a hit.
// values below are reported growth inhibition
Number only, in %; omit the unit.

Solved entries:
CC(C)OC(CCC#N)c1ccc(Cl)cc1 (centres undefined) ... -46
COc1ccc(/C(=N/O)c2ccccc2C2=Nc3ccccc3C(NCc3ccccc3)O2)cc1C (centres undefined) ... -2
O=c1[nH]c(=O)n(CCCO)cc1F ... -13

Identify measured growth inhibition corresponding to O=C(Cc1ccccc1)c1ccc(O)cc1 -45

====

assay procedure: NCI Yeast Anticancer Drug Screen. Data for the mgt1 strain (AID 153)
particulars: S. cerevisiae mgt1 mutant growth inhibition; at 11.0 µM; active compounds read high
Experimental: Growth inhibition of yeast strains with defined genetic alterations is measured as a screen for potential anti-cancer activity. Selected strains with alterations in DNA damage repair or cell cycle control were exposed to compounds and growth inhibition was measured relative to vehicle treated controls. The strain used in this assay is mgt1
Compounds without any hit were thinned out: in the full panel of roughly 79,000, 15% have a hit.
// values below are reported growth inhibition
Number only, in %; omit the unit.

CC1=NN(C(=O)CC(=O)N(C(=O)c2ccccc2)c2ccc(Cl)cc2)C(=O)C1N=Nc1ccc([N+](=O)[O-])cc1 (stereo not drawn) ... 35

Identify measured growth inhibition corresponding to c1cc(Nc2ccc3c(c2)OCO3)c2cc(C3CCCCC3)ccc2n1 -3

Identify measured growth inhibition corresponding to COc1ccc(C(=O)OCCc2ccccc2)cc1 -3

====

assay procedure: NCI Yeast Anticancer Drug Screen. Data for the mlh1 rad18 strain (AID 175)
particulars: S. cerevisiae mlh1 rad18 strain growth inhibition; at 5.0 µM (retest, dose inferred, filed as 0.5); active compounds read high
About 79,000 compounds went through this panel and 15% of them were active in at least one assay; those are over-represented in the sample as a whole.
// n strictly below 10% in growth inhibition; y otherwise

// below: answered compounds
O=[N+]([O-])c1cccc2nc3ccccc3c(NCCC[N+]3([O-])CCOCC3)c12 ... y
CCOC(=O)/C=C1\CCCn2c1ncc(C(=O)OCC)c2=O ... n

Determine whether this compound has growth inhibition no lower than 10%: Cc1ccc2oc(-c3cccc(N)c3)nc2c1 n

Determine whether this compound has growth inhibition no lower than 10%: O=C(c1c(F)c(F)c(F)c(F)c1F)c1c(F)c(F)c(F)c(F)c1F y

Determine whether this compound has growth inhibition no lower than 10%: C#CC1=CC(=O)C(OC)=CC1=O y

Determine whether this compound has growth inhibition no lower than 10%: Nc1c([N+](=O)[O-])cc2c3c(cccc13)CC2 y

Determine whether this compound has growth inhibition no lower than 10%: O=C(CCC(=O)c1ccc(O)cc1)Oc1ccc(O)cc1 n

Determine whether this compound has growth inhibition no lower than 10%: CCOC(=O)C1=C(C)NC(C)=C(C(=O)OCC)C1c1cccc([N+](=O)[O-])c1 y

Determine whether this compound has growth inhibition no lower than 10%: c1cncc(C(Nc2cccc3cccnc23)Nc2cccc3cccnc23)c1 y

Determine whether this compound has growth inhibition no lower than 10%: Cc1ccccc1C1=C(CC(=O)O)c2ccccc2CC1C (stereo not given) y

====

assay procedure: NCI Yeast Anticancer Drug Screen. Data for the cln2 rad14 strain (AID 165);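 note: 0% = growth equal to vehicle treated cultures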
particulars: S. cerevisiae cln2 rad14 strain, at 50.0 µM, active compounds read high
The panel holds about 79,000 compounds, 15% with a hit somewhere; the sample as a whole holds those more often.
property label: growth inhibition (%)
Number only, in %; omit the unit.

Solved entries:
CC(C)c1ccc(C2NC(=S)NC3=C2c2ccccc2C3=O)cc1 (stereo not drawn) ... 66.8
CC1(C)CC(=O)C(C(CC(c2ccccc2)c2cc3c(cc2O)OCO3)C2=C(O)CC(C)(C)CC2=O)=C(O)C1 (stereo not drawn) ... 95

Could you now consider this next compound?
Identify measured growth inhibition corresponding to CC1C=CN(N(C)C)C2=C1C(=O)c1cnccc1C2=O (stereo not drawn) 87.8

====

assay procedure: NCI Yeast Anticancer Drug Screen. Data for the rad50EPP+ strain (AID 151);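 note: 0% = growth of vehicle-treated control cultures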
particulars: S. cerevisiae rad50 mutant strain, at 3.7 µM
The panel holds about 79,000 compounds, 15% with a hit somewhere; the sample as a whole holds those more often. Calls of active or inactive are those of the source. Rule as the data show it: active = growth inhibition above about 70%; inactive = the rest.
// allowed return values: true (active), false (inactive)

Cc1ccc2c(/C=C/c3ccc(N(C)C)cc3)ccnc2c1C ... false
CC1(C)CC(=O)C(C(CC(c2ccccc2)c2cc3c(cc2O)OCO3)C2=C(O)CC(C)(C)CC2=O)=C(O)C1 (stereo unspecified) ... false
Oc1ccc(Cc2nccc3cc(O)c(O)cc23)cc1O ... false
CN(NC(=O)/C(=C/C=C/c1ccccc1)NC(=O)c1ccccc1)C1=C(Cl)C(=O)[N+](c2ccccc2)=CC1 ... false
Nc1nc(Nc2ccccc2)nc(Nc2ccccc2)n1 ... false
O=C1C(C(O)(C(F)(F)F)C(F)(F)F)CCC1C(O)(C(F)(F)F)C(F)(F)F (stereo unspecified) ... false

// param item: C#CC1=CC(=O)C(OC)=CC1=O ; yields the recorded call false

====

assay procedure: NCI Yeast Anticancer Drug Screen. Data for the mlh1 rad18 strain (AID 175)
particulars: S. cerevisiae mlh1 rad18 strain growth inhibition; at 50.0 µM
Compounds without any hit were thinned out: in the full panel of roughly 79,000, 15% have a hit. Calls of active or inactive are those of the source. Cut-off read from the data, not from the text of the source: active = growth inhibition above about 70%; inactive = the rest.
// allowed return values: active, inactive

O=C(CCCN1CCC2(CC1)OC(=O)N(c1ccccc1)C2=O)c1ccccc1 ... active
Cc1cccc[c]1[Sn]([Cl])([S]/C(C#N)=N/N=C/c1ccc(N(C)C)cc1)[c]1ccccc1C ... active
[N-]=[N+]=NC1CC(n2ccc(=O)[nH]c2=O)OC1COC(c1ccccc1)(c1ccccc1)c1ccccc1 (stereo not given) ... inactive
CCOc1ccc2ccc3cccnc3c2n1 ... inactive
CC(C)(C)[Si](C)(C)OCC1OC(n2cnc3c(N)ncnc32)C2OC(=S)OC12 (stereo not given) ... inactive
CCCCCCCCCCCCOC1C(COCCN2CCCC2)OC2OC(C)(C)OC21 (stereo not given) ... active
O=C(Cc1ccccc1)c1ccc(O)cc1 ... active
O=C1C(Br)=CC(Br)(Br)C=C1Br ... active

// param item: CN(NC(=O)/C(=C/C=C/c1ccccc1)NC(=O)c1ccccc1)C1=C(Cl)C(=O)[N+](c2ccccc2)=CC1 ; yields the recorded call active

// param item: CN(C)N1C(=O)SCC(c2ccccc2)(c2ccccc2)C1=O ; yields the recorded call inactive
